biological target: factor D (Homo sapiens); construct: made in house; host or cells: E. coli; test: factor D inhibition assay of Biological Example 2; format: biochemical
Sequence (P00746 26-253): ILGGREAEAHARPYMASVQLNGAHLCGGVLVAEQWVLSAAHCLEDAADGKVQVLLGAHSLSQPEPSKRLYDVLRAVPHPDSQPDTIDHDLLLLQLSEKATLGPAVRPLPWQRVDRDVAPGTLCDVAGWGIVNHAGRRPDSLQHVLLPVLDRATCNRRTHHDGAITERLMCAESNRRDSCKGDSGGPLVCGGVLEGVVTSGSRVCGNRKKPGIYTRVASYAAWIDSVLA
measured-property: pIC50
Lab note: report pIC50 as minus log10 of the concentration in molar units, number only.

Please look up its pIC50: C[C@@H](N)c1cccc(-c2cccc(COc3ccccc3CC(=O)O)c2)n1
6.52

Please look up its pIC50: Cc1ccc(-c2cccc([C@@H](C)N)c2F)cc1COc1ccccc1CC(=O)O
7.85

Please look up its pIC50: C[C@@H](N)c1cccc(-c2ccc3c(c2)N(Cc2ccccc2CC(=O)O)CCC3)c1F
7.21

Please look up its pIC50: NCc1cc(F)cc(-c2cc(Nc3ccccc3)cc(C(=O)Nc3ccccc3CC(=O)O)c2)c1
8.05

Please look up its pIC50: C[C@@H](N)c1cccc(-c2cc(COc3ccccc3CC(=O)O)cc(N(C)CC3CC3)c2)c1F
8.05

Please look up its pIC50: NCc1cc(F)cc(-c2cc(O)cc(C(=O)Nc3ccccc3CC(=O)O)c2)c1
7.33

Please look up its pIC50: NCc1cc(-c2cc(COc3ccccc3CC(=O)O)cc(OC[C@H]3CCCO3)c2)ccn1
8.70

Please look up its pIC50: CCNc1ccc(CC(=O)O)c(OCc2cccc(-c3cccc(CN)c3)c2)c1
6.31

Please look up its pIC50: NCc1cc(F)cc(-c2cc(NC[C@@H]3CCCO3)cc(C(=O)Nc3ccccc3CC(=O)O)c2)c1
8.22

Please look up its pIC50: NC(CF)c1cccc(-c2cccc(COc3ccccc3CC(=O)O)c2)c1 (single isomer, unassigned; (+)) [Example 190-B (+)]
8.05

Please look up its pIC50: NC(CF)c1cccc(-c2cc(COc3ccccc3CC(=O)O)cc(OCC3CC3)c2)c1F (racemic)
8.30

Please look up its pIC50: NCc1cc(F)cc(-c2nc(C(=O)Nc3ccccc3CC(=O)O)c(N3CCOCC3)s2)c1
7.31

Please look up its pIC50: Cc1cccc(NC(=O)c2cccc(-c3cc(F)cc(CN)c3)c2)c1CC(=O)O
6.03

Please look up its pIC50: CCC[C@@H](N)c1cccc(-c2cccc(COc3ccccc3CC(=O)O)c2)n1
4.95

Please look up its pIC50: NC(=O)C(N)c1cccc(-c2cccc(COc3ccccc3CC(=O)O)c2)c1 (racemic)
5.96

Please look up its pIC50: NC(CF)c1cccc(-c2cc(CNCC(F)(F)F)cc(COc3ccccc3CC(=O)O)c2)c1F (centres unmarked)
7.46

Please look up its pIC50: N[C@H](CO)c1cccc(-c2cc(COc3ccccc3CC(=O)O)cc(NCC3CC3)c2)c1
8.52

Please look up its pIC50: NCc1cncc(-c2cc(COc3ccccc3CC(=O)O)cc(OC[C@H]3CCCO3)c2)c1
5.82

Please look up its pIC50: C[C@@H](N)c1cccc(-c2cc(COc3ccccc3CC(=O)O)cc(COC3CCOc4ccc(Cl)cc43)c2)c1F (some centres unmarked)
7.68

Please look up its pIC50: NCc1cccc(-c2cc(NC3CC3)cc(C(=O)Nc3ccccc3CC(=O)O)n2)c1
8.70

Please look up its pIC50: NCc1cccc(-c2cccc(C#Cc3ccccc3CC(=O)O)c2)c1
6.47

Please look up its pIC50: CN(C)c1cc(COc2ccccc2CC(=O)O)cc(-c2cccc([C@H](N)CO)c2)c1
7.74

Please look up its pIC50: C[C@@H](N)c1cccc(-c2cc(COc3ccccc3CC(=O)O)cc(OCc3cncn3C)c2)c1F
8.00

Please look up its pIC50: CC(=O)NCc1ccc(CC(=O)O)c(OCc2cccc(-c3cccc(CN)c3)c2)c1
8.00

Please look up its pIC50: C[C@@H](N)c1cccc(-c2cc(CNC3CC3)cc(COc3ccccc3CC(=O)O)c2)c1F
7.70

Please look up its pIC50: NCc1cccc(-c2cc(Cl)cc(COc3ccccc3CC(=O)O)c2)c1
8.05

Please look up its pIC50: C[C@@H](N)c1cccc(-c2cc(Br)cc(COc3ccccc3CC(=O)O)c2)c1F
7.92

Please look up its pIC50: NCc1cc(F)cc(-c2cc(NCC3CCOCC3)cc(C(=O)Nc3ccccc3CC(=O)O)c2)c1
7.92

Please look up its pIC50: C[C@H](N)c1cccc(-c2cc(COc3ccccc3CC(=O)O)cc(OCc3ccccn3)c2)c1F
7.70

Please look up its pIC50: COCCNc1cc(COc2ccccc2CC(=O)O)cc(-c2cccc([C@H](N)CO)c2)c1
8.30

Please look up its pIC50: NC(CF)c1cccc(-c2cccc(COc3ccccc3CC(=O)O)c2)c1F (centres unmarked) [Example 215]
8.10

Please look up its pIC50: NCc1cc(F)cc(-c2cc(Br)cc(C(=O)Nc3ccccc3CC(=O)O)c2)c1
7.10
